experiment: self-splicing fitness, log relative to wild type (ln ratio); higher = more splicing; Tetrahymena group I intron in knt gene, E. coli kanamycin selection, DiMSum; sequences stand for … in CUCUCU…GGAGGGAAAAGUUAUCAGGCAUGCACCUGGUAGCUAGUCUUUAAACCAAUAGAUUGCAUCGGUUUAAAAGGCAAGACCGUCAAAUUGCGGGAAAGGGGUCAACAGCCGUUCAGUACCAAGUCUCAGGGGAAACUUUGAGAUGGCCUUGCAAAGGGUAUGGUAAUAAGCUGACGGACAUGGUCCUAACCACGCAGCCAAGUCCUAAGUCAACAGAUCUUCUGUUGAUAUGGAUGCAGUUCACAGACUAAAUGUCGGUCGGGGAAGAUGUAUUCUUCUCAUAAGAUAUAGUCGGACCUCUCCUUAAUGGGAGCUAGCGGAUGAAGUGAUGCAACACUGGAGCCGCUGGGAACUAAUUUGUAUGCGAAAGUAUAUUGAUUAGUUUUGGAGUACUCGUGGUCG; conditions: 30 °C;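 note: selection with 25 µg/mL kanamycin versus none on LB agar overnight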
Would you kindly list self-splicing fitness (ln) for each of these sequences?

Worked cases, answers included:
sequence_content=GGAGAGCAAUAUUACGGGUU recorded_value=-3.71
sequence_content=GCCUAGCAAUAUUACGCAAC recorded_value=-1.78
sequence_content=GUCUAGCAAUAUUACGACAA recorded_value=-2.6
sequence_content=UCUUAGCAAUAUUACGGUGA recorded_value=-0.481

// for each sequence below, give its self-splicing fitness (ln)
1. AUGUAGCAAUAUUACGUGGA
2. UAACAGCAAUAUUACGCUGG
3. UUAUAGCAAUAUUACGGGAU
4. AAAUAGCAAUAUUACGCCAG
5. AGGUAGCAAUAUUACGGUCG
6. GUCUAGCAAUAUUACGCAGG

[-1.58, -3.29, -2.78, -2.53, -0.351, -3.11]

Here are 2 sequences. What values of self-splicing fitness (ln) were reported for them?
1. AACCAGCAAUAUUACGAAAU
2. CCGUAGCAAUAUUACGCGGC

1: -1.08; 2: -2.94

Give self-splicing fitness (ln) for all sequences that follow.
1. UCGAAGCAAUAUUACGAGCG
2. CAUCAGCAAUAUUACGGCCU
3. GCGAAGCAAUAUUACGAAUC
4. GAGAAGCAAUAUUACGUCGU

-1.04
-3.29
-2.47
-2.16

====

test: self-splicing fitness, log relative to wild type (ln ratio); higher = more splicing; Tetrahymena group I intron in knt gene, E. coli kanamycin selection, DiMSum; sequences stand for … in CUCUCU…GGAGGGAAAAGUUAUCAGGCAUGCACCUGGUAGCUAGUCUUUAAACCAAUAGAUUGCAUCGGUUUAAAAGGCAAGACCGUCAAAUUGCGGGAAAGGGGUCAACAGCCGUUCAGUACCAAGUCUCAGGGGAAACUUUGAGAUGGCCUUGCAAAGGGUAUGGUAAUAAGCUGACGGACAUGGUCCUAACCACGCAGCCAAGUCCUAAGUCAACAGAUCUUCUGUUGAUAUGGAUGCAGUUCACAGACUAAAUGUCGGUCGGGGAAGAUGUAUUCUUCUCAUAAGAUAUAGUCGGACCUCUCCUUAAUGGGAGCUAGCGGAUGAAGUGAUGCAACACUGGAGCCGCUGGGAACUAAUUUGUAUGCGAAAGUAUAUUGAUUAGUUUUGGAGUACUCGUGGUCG; conditions: 37 °C
property_measured: self-splicing fitness (ln)
One number for each entry.

sequence_content=GCGGAGCAAUAUUACGCGUU property_measured="self-splicing fitness (ln)" recorded_value=-1.23
sequence_content=AGGAAGCAAUAUUACGCGCC property_measured="self-splicing fitness (ln)" recorded_value=-0.761
sequence_content=CUAAAGCAAUAUUACGAAAA property_measured="self-splicing fitness (ln)" recorded_value=-2.19
sequence_content=GAUCAGCAAUAUUACGGGCC property_measured="self-splicing fitness (ln)" recorded_value=-0.311
sequence_content=GCUAAGCAAUAUUACGAGGC property_measured="self-splicing fitness (ln)" recorded_value=-1.6
sequence_content=CAUCAGCAAUAUUACGCACC property_measured="self-splicing fitness (ln)" recorded_value=-1.61
sequence_content=GGCCAGCAAUAUUACGGCGG property_measured="self-splicing fitness (ln)" recorded_value=-1.53
sequence_content=AUAUAGCAAUAUUACGAUUG property_measured="self-splicing fitness (ln)" recorded_value=-3.2

Return reported self-splicing fitness (ln) values for all items listed beneath this line.
1. AUGAAGCAAUAUUACGGUAC
2. GACAAGCAAUAUUACGCGUC
3. AACUAGCAAUAUUACGAAUG
4. CUCUAGCAAUAUUACGGGGA
5. GAAUAGCAAUAUUACGUCGU

1: -0.139; 2: -3.45; 3: -1.69; 4: -1.62; 5: -1.35

====

assay: self-splicing fitness, log relative to wild type (ln ratio); higher = more splicing; Tetrahymena group I intron in knt gene, E. coli kanamycin selection, DiMSum; sequences stand for … in CUCUCU…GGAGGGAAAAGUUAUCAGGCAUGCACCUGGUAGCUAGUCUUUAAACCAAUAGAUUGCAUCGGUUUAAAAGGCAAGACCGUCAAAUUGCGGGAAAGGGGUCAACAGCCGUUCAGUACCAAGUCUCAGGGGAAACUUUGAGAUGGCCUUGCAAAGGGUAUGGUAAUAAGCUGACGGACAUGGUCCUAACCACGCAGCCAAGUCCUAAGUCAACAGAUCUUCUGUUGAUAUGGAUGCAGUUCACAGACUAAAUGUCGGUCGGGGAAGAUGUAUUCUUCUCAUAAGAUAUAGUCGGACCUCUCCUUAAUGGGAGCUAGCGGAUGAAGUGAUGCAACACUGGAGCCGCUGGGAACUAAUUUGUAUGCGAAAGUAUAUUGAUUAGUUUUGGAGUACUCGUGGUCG; details: 30 °C
property_measured: self-splicing fitness (ln)
Answers are plain numbers.

Use the examples below as a reference point.
sequence_content=CAGGAGCAAUAUUACGAAUA property_measured="self-splicing fitness (ln)" recorded_value=-3.47
sequence_content=UUGAAGCAAUAUUACGCGGC property_measured="self-splicing fitness (ln)" recorded_value=-1.63
sequence_content=GCGGAGCAAUAUUACGUACG property_measured="self-splicing fitness (ln)" recorded_value=-2.97
sequence_content=UACUAGCAAUAUUACGUGAC property_measured="self-splicing fitness (ln)" recorded_value=-2.29
sequence_content=UCAGAGCAAUAUUACGUUGA property_measured="self-splicing fitness (ln)" recorded_value=-2.33

Please look at the items below and tell me self-splicing fitness (ln) for each one, in order.
1. UAUCAGCAAUAUUACGGUGA
2. UGACAGCAAUAUUACGCCUU
3. CGCCAGCAAUAUUACGAGCU
4. CCGGAGCAAUAUUACGCCGA
5. CCCGAGCAAUAUUACGGCAU
6. AACCAGCAAUAUUACGUUAA
7. CCGGAGCAAUAUUACGUAAA
8. AGUGAGCAAUAUUACGGCGU

-0.121
-2.19
-3.06
-3.86
-3.28
-1.83
-3.29
-1.08

Please give self-splicing fitness (ln) for each item listed below.
1. GGGCAGCAAUAUUACGAUCA
2. GCGCAGCAAUAUUACGCCGA
3. GACCAGCAAUAUUACGUCUA
4. CCGCAGCAAUAUUACGCGCA
5. GGUCAGCAAUAUUACGCCAA
6. UCCCAGCAAUAUUACGCCAU

1: -1.56; 2: -0.753; 3: -1.44; 4: -3.08; 5: -1.17; 6: -3.09

Could you report self-splicing fitness (ln) for every entry in the following list?
1. GCUCAGCAAUAUUACGCAUU
2. ACAUAGCAAUAUUACGCCCA

[-0.452, -0.769]

====

assay: self-splicing fitness, log relative to wild type (ln ratio); higher = more splicing; Tetrahymena group I intron in knt gene, E. coli kanamycin selection, DiMSum; sequences stand for … in CUCUCU…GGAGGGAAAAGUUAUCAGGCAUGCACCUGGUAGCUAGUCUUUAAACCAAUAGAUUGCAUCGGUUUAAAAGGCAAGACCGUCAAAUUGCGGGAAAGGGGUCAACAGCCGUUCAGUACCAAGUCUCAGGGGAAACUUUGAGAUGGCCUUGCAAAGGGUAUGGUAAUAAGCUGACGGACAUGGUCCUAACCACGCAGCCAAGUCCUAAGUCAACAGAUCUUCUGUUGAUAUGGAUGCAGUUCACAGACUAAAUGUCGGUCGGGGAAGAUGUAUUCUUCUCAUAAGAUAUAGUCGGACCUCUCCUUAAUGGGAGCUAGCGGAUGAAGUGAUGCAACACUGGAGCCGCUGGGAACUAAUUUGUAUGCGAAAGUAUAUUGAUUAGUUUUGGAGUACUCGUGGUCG; conditions: 30 °C
Classify by measured self-splicing fitness (ln): Y if it is equal to or exceeds -2, N if it is smaller.

Worked set:
sequence_content=CGAUAGCAAUAUUACGCCCA discrete_label=Y
sequence_content=ACGAAGCAAUAUUACGAAUC discrete_label=N

Tell me whether self-splicing fitness (ln) is at least -2 here: "GGAAAGCAAUAUUACGAGCC" Y

Please tell me: is the sequence "ACCCAGCAAUAUUACGGGGG" at or over -2 in terms of self-splicing fitness (ln)? N

Would you say "GGUGAGCAAUAUUACGAUCA" shows self-splicing fitness (ln) at minimum -2? Y

Test whether the sequence "UCUGAGCAAUAUUACGGGUC" records self-splicing fitness (ln) of -2 or higher. N

API: above_or_equal(metric=self-splicing fitness (ln), cutoff=-2) for item "AAGGAGCAAUAUUACGCGCG" N

Does the sequence "CUUAAGCAAUAUUACGUUAU" have recorded self-splicing fitness (ln) that is -2 or more? N

Has "CUGGAGCAAUAUUACGAUGU" a recorded self-splicing fitness (ln) greater than or equal to -2? N

Dear colleague, could you confirm whether "CGAGAGCAAUAUUACGAAGA" has self-splicing fitness (ln) at or above -2? N

Kindly determine if self-splicing fitness (ln) recorded for "AGAAAGCAAUAUUACGACGC" is above or exactly -2. Y

Reported self-splicing fitness (ln) at or above -2? "AGGUAGCAAUAUUACGCUCC" N

Identify whether the reported self-splicing fitness (ln) of the following sequence is -2 or greater: "CUCCAGCAAUAUUACGCCCC" N

Could you tell me if the measured self-splicing fitness (ln) of "CUCCAGCAAUAUUACGGCGG" reaches -2 or more? N

Please check the record "UGAAAGCAAUAUUACGUCUG" and state if its self-splicing fitness (ln) is at or above -2. Y
